Assay read-out Ki on 5-hydroxytryptamine receptor 7 (Rattus norvegicus); records merged from the literature.
Sequence (P32305 whole entry): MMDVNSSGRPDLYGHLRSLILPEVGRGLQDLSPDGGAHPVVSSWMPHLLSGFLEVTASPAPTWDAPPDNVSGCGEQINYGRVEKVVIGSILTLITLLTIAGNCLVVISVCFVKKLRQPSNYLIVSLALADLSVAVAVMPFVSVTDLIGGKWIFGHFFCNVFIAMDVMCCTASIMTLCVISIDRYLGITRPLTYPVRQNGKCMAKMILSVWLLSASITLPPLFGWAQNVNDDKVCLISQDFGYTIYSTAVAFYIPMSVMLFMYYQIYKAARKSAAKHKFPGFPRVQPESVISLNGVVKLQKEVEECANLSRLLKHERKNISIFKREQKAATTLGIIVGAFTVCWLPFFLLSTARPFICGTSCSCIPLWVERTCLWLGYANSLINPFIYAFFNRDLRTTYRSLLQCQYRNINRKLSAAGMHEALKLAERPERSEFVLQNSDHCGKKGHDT
Numbers only, in nM.

Parameter requested: Ki. Apply to each item below.
1. CN1CCN(C2=Nc3ccccc3Oc3ccc(Cl)cc32)CC1
2. Cc1nc2sccn2c(=O)c1CCN1CCC(=C(c2ccc(F)cc2)c2ccc(F)cc2)CC1
3. O=C(NC1CCN(CCc2c[nH]c3ccccc23)CC1)c1ccccc1
4. COc1ccccc1N1CCN(CCCCN2C(=O)c3ccccc3C2=O)CC1
5. Cc1cccc(N2CCN(CCCOc3ccc4ccc(=O)[nH]c4c3)CC2)c1C

A)
1. 39.8
2. 25.1
3. 5
4. 79.1
5. 22

Parameter requested: Ki. Apply to each item below.
1. NC(=O)c1ccc(F)c2c1CC(N(C1CCC1)C1CCC1)CO2 (stereo unspecified)
2. CNC[C@H](O)c1cccc(O)c1
3. CC(C)(C)[C@]1(O)CCN2C[C@H]3c4ccccc4CCc4cccc(c43)[C@@H]2C1
4. c1ccc(CC2=NCCN2)cc1
5. Cc1c(O)ccc(N2CCN(CCCCOc3ccc4c(c3)NC(=O)CC4)CC2)c1C

A)
1900
1400
63
2000
220
